Record form. Attribute: Fold Synergistic (1a-QE). Fill in for each entry.
tested on: genotype-1a variant with glutamine 30 changed to glutamate in the NS5A protein; test: HCV replicon cell-based assay, NS5A synergy with BMS-790052; settings: genotype 1a Q→E variant; test compound titrated in combination with NS5A-targeting compound (BMS-790052 fixed at 200 nM)

Below, each entry is followed by its recorded Fold Synergistic (1a-QE) result.
CCCN(CC1CC1)C(=O)C[C@H](c1ncc(-c2ccc(-c3ccc(-c4cnc([C@@H](CC(=O)N(CCC)CC5CC5)C(C)C)[nH]4)cc3)cc2)[nH]1)C(C)C : >10 Fold
C[C@@H]1CN(C(=O)C[C@@H](C)c2ncc(-c3ccc(-c4ccc(-c5cnc([C@H](C)CC(=O)N6C[C@@H](C)O[C@@H](C)C6)[nH]5)cc4)cc3)[nH]2)C[C@H](C)O1 : >10 Fold
CCOCC1(CNC(=O)C[C@H](c2ncc(-c3ccc(-c4ccc(-c5cnc([C@@H](CC(=O)NCC6(COCC)CC6)C(C)C)[nH]5)cc4)cc3)[nH]2)C(C)C)CC1 : >10 Fold
CCCCN(C(=O)C[C@H](c1ncc(-c2ccc(-c3ccc(-c4cnc([C@@H](CC(=O)N(CCCC)C(C)C)C(C)C)[nH]4)cc3)cc2)[nH]1)C(C)C)C(C)C : >10 Fold
C[C@H](CC(=O)NCC1CC1)c1ncc(-c2ccc(-c3ccc(-c4cnc([C@H](C)CC(=O)NCC5CC5)[nH]4)cc3)cc2)[nH]1 : >100 Fold

# map each compound to its Fold Synergistic (1a-QE)
1. COC(=O)NN(C(=O)[C@@H]1OCO[C@H]1c1ncc(-c2ccc(-c3ccc(-c4cnc([C@@H]5OCO[C@H]5C(=O)N(NC(=O)OC)C(C)C)[nH]4)cc3)cc2)[nH]1)C(C)C
2. CCC(CC)CNC(=O)C[C@H](c1ncc(-c2ccc(-c3ccc(-c4cnc([C@@H](CC(=O)NCC(CC)CC)C(C)C)[nH]4)cc3)cc2)[nH]1)C(C)C
3. CC(C)CNC(=O)C[C@H](c1ncc(-c2ccc(-c3ccc(-c4cnc([C@@H](CC(=O)NCC(C)C)C(C)C)[nH]4)cc3)cc2)[nH]1)C(C)C
4. CC(C)[C@H](CC(=O)NCC(C)(c1ccccc1)c1ccccc1)c1ncc(-c2ccc(-c3ccc(-c4cnc([C@@H](CC(=O)NCC(C)(c5ccccc5)c5ccccc5)C(C)C)[nH]4)cc3)cc2)[nH]1
5. CC(C)N(C(=O)C[C@@H](CCC(F)(F)F)c1ncc(-c2ccc(-c3ccc(-c4cnc([C@H](CCC(F)(F)F)CC(=O)N(C(C)C)C5CC5)[nH]4)cc3)cc2)[nH]1)C1CC1
6. CC(C)NC(=O)CN(C)C(=O)C[C@H](c1ncc(-c2ccc(-c3ccc(-c4cnc([C@@H](CC(=O)N(C)CC(=O)NC(C)C)C(C)C)[nH]4)cc3)cc2)[nH]1)C(C)C
7. CC(C)[C@H](CC(=O)NCC12CC3CC(CC(C3)C1)C2)c1ncc(-c2ccc(-c3ccc(-c4cnc([C@@H](CC(=O)NCC56CC7CC(CC(C7)C5)C6)C(C)C)[nH]4)cc3)cc2)[nH]1
8. CC(C)[C@H](CC(=O)NCC(C)(C)C(N)=O)c1ncc(-c2ccc(-c3ccc(-c4cnc([C@@H](CC(=O)NCC(C)(C)C(N)=O)C(C)C)[nH]4)cc3)cc2)[nH]1

Result:
<10 Fold
>100 Fold
>10 Fold
>100 Fold
<10 Fold
<10 Fold
>100 Fold
>10 Fold
